Where do these numbers come from? They come from PubChem BioAssay (NCATS).

- System: HaCat
- Test protocol: Cytotoxic Profiling of Annotated Libraries Using Quantitative High-Throughput Screening (AID 1296008); further: nearly all actives have a fitted effect of over 60% in size
- Condition set: Five cell lines viability, CellTiter-Glo ATP luminescence, 48-72 h
Results filed as inconclusive are left out. Calls of active or inactive are those of the source. The call rests on the fitted dose curve; in most records, active means well fitted inhibition curve with a large enough effect; inconclusive means small, poorly fitted or top-dose-only effect; inactive means flat fitted curve, though single readings scatter.
Hi! Could you answer with just one of these? 1 (yes) (active), 0 (no) (inactive)

| Compound | Category label |
| --- | --- |
| CC1CCCC(O)CC(=O)Cc2cc(O)cc(O)c2C(=O)O1 (stereo not drawn) | 0 (no) |
| Cc1sc2c(c1C)C(c1ccc(Cl)cc1)=N[C@@H](CC(=O)Nc1ccc(O)cc1)c1nnc(C)n1-2 | 0 (no) |
| CC(C)=CCC[C@]1(C)C=Cc2c(O)c3c(c(CC=C(C)C)c2O1)O[C@]12C(=C[C@@H]4CC1C(C)(C)O[C@@]2(C/C=C(/C)C(=O)O)C4=O)C3=O | 1 (yes) |
| COC(=O)[C@@]1(C)C(=O)C=C[C@]2(C)c3c(O)cc(C(C)C)cc3[C@H](O)[C@@H](OC(C)=O)C12 (stereo partly drawn) | 0 (no) |
| C=C1[C@@H](C)[C@H]2[C@H](Cc3ccccc3)NC(=O)[C@]23OC(=O)/C=C/C(=O)CCC[C@@H](C)C/C=C/[C@H]3[C@@H]1O | 1 (yes) |
| Cc1c(N2C(=O)[C@@H]3[C@H](O)CCN3C2=O)ccc(C#N)c1Cl | 0 (no) |

// param item: CC(C)OC(=O)c1ccnc2cc(C(OCCN3CCCCC3)c3ccccc3Cl)sc12 (stereo not drawn) ; yields the recorded call
0 (no)

// param item: CO[C@@H]1C[C@H](O[C@H]2CC[C@@]3(C)C(CCC4C3CC[C@]3(C)[C@@H](C5=CC(=O)OC5)[C@@H](OC(C)=O)CC43O)C2)O[C@H](C)[C@@H]1O[C@H]1O[C@H](CO[C@@H]2O[C@H](CO)[C@@H](O)[C@H](O)[C@H]2O)[C@@H](O)[C@H](O)[C@H]1O (stereo partly drawn) ; yields the recorded call
1 (yes)
